Conditions: in acetone, 298.15 K

SMI	solubility (mole fraction)
O=C(O)c1cccc(O)c1O	0.108

---

Settings: in isopropanol, 278.15 K

SMI	solubility (mole fraction)
O=C(O)c1cccc(O)c1O	0.0697

---

Details: in ethyl acetate, 308.15 K

SMI	solubility (mole fraction)
O=C(O)c1cccc(O)c1O	0.066

---

Settings: in ethyl acetate, 283.15 K
ENDPOINT NAME: solubility (mole fraction)

SMI	REPORTED MEASUREMENT
O=C(O)c1cccc(O)c1O	0.048

---

Conditions: in n-propanol, 278.15 K

SMI	solubility (mole fraction)
O=C(O)c1cccc(O)c1O	0.0664
